System: Pichia kudriavzevii
Experiment: Antifungal activity against Candida krusei IFO 1664 after 24 to 72 hrs by NCCLS method
Type: functional
# MIC values compiled below
Only the number, expressed in µg/mL, is required.

CCC(C)n1ncn(-c2ccc(N3CCN(c4ccc(OCC5COC(Cn6cncn6)(c6ccc(Cl)cc6Cl)O5)cc4)CC3)cc2)c1=O (centres undefined) | 0.25

Please turn your attention to the following entry.
I have this compound here, `COc1cc(CO[C@H]2Cc3c(O)cc(O)cc3O[C@@H]2c2ccc(O)c(O)c2)cc(OC)c1OC` , and I need its recorded MIC.
128

---

Test system: Pichia kudriavzevii
Assay: Antifungal activity against Candida krusei IFO 1664 after 24 to 72 hrs by NCCLS method
Format: functional
ATTRIBUTE MEASURED: MIC

Worked set:
Oc1cc(O)c2c(c1)O[C@H](c1ccc(O)c(O)c1)[C@@H](O)C2 | > 128 µg/mL
C[C@@H]1[C@H](O)[C@@H](C)/C=C/C=C/C=C/C=C/C=C/C=C/C=C/[C@H](O[C@@H]2O[C@H](C)[C@@H](O)[C@H](N)[C@@H]2O)C[C@@H]2O[C@](O)(C[C@@H](O)C[C@@H](O)[C@H](O)CC[C@@H](O)C[C@@H](O)CC(=O)O[C@H]1C)C[C@H](O)[C@H]2C(=O)O | 0.5 µg/mL
O=C(O[C@@H]1Cc2c(O)cc(O)cc2O[C@@H]1c1ccc(O)c(O)c1)c1cc(O)c(O)c(O)c1 [EPICATECHIN GALLATE] | > 128 µg/mL
O=C(O[C@@H]1Cc2c(O)cc(O)cc2O[C@@H]1c1cc(O)c(O)c(O)c1)c1cc(O)c(O)c(O)c1 [EPIGALOCATECHIN GALLATE] | > 128 µg/mL
CCCO[C@H]1Cc2c(O)cc(O)cc2O[C@@H]1c1ccc(O)c(O)c1 | > 128 µg/mL

Next item in the queue.
I am curious: what MIC value has been reported for Oc1cc(O)c2c(c1)O[C@H](c1cc(O)c(O)c(O)c1)[C@H](O)C2 [EPIGALLOCATECHIN] ?
> 128 µg/mL

---

Tested on: Klebsiella pneumoniae
Test: Antibacterial activity against Klebsiella pneumoniae ATCC 10031 after 24 hrs by NCCLS method
Format: functional
Settings: ATCC 10031, 24 h
ATTRIBUTE MEASURED: MIC

CCCO[C@H]1Cc2c(O)cc(O)cc2O[C@@H]1c1ccc(O)c(O)c1 | > 128 µg/mL
Oc1cc(O)c2c(c1)O[C@H](c1ccc(O)c(O)c1)[C@@H](OCc1ccccc1)C2 | 128 µg/mL
COc1cc(CO[C@H]2Cc3c(O)cc(O)cc3O[C@@H]2c2ccc(O)c(O)c2)cc(OC)c1OC | 128 µg/mL
O=C(O[C@@H]1Cc2c(O)cc(O)cc2O[C@@H]1c1ccc(O)c(O)c1)c1cc(O)c(O)c(O)c1 [EPICATECHIN GALLATE] | > 128 µg/mL
O=C(O[C@@H]1Cc2c(O)cc(O)cc2O[C@@H]1c1cc(O)c(O)c(O)c1)c1cc(O)c(O)c(O)c1 [EPIGALOCATECHIN GALLATE] | > 128 µg/mL

Reported MIC for Klebsiella pneumoniae, given Oc1cc(O)c2c(c1)O[C@H](c1ccc(O)c(O)c1)[C@H](O)C2 [(-)-EPICATECHIN] ?
> 128 µg/mL

Request body: readout MIC, system Klebsiella pneumoniae, query NC[C@H]1O[C@H](O[C@H]2[C@H](O)[C@@H](O[C@H]3O[C@H](CO)[C@@H](O)[C@H](N)[C@H]3O)[C@H](N)C[C@@H]2N)[C@H](O)[C@@H](O)[C@@H]1O.O=S(=O)(O)O [KANAMYCIN SULFATE] . Return the value.
64 µg/mL

---

System: Klebsiella pneumoniae
Assay: Antibacterial activity against Klebsiella pneumoniae ATCC 10031 after 24 hrs by NCCLS method
Assay type: functional
Conditions: ATCC 10031, 24 h
ATTRIBUTE MEASURED: MIC

O=C(O)c1cn(C2CC2)c2cc(N3CCNCC3)c(F)cc2c1=O | < 0.06 µg/mL
Oc1cc(O)c2c(c1)O[C@H](c1ccc(O)c(O)c1)[C@@H](O)C2 | > 128 µg/mL

Consider now this further molecule.
Field: MIC (Klebsiella pneumoniae). Entry: Oc1cc(O)c2c(c1)O[C@H](c1cc(O)c(O)c(O)c1)[C@H](O)C2 [EPIGALLOCATECHIN]
> 128 µg/mL
